# Test system: HCT116, a colorectal carcinoma cell line
# protocol description: Tetrazolium dye proliferation assay (MTT assay)
# Type: cell-based
# experimental parameters: Homo sapiens, HCT-116, HCT116 cells, inhibition of cell proliferation
Catalogue of compounds with associated IC50
property name: IC50

>>> result("CN(C)CCOc1ccc(Nc2nc(N)c(C(=O)c3cccc(Br)c3)s2)cc1 [Example 65]")
"3240 nM"
>>> result("CC(C)NCCOc1ccc(Nc2nc(N)c(C(=O)c3ccc4c(c3)OCCO4)s2)cc1 [Example 136]")
"5090 nM"
>>> result("CCN(CC)CCOc1ccc(Nc2nc(N)c(C(=O)c3ccc(O)c(F)c3)s2)cc1 [Example 123]")
"1870 nM"
>>> result("CCN1CCCC(Oc2ccc(Nc3nc(N)c(C(=O)c4cccc(C)c4)s3)cc2)C1 (stereo not shown) [Example 78]")
"1510 nM"
